Cited source for all entries: patent EP4813463A2

# targetOrSystem: TYK2-JH2 domain (Homo sapiens, UniProt P29597)
# Construct: JAK1-JH2 domain or TYK2-JH2 domain enzyme in assay buffer
# Sequence (P29597 589-875 limits assumed): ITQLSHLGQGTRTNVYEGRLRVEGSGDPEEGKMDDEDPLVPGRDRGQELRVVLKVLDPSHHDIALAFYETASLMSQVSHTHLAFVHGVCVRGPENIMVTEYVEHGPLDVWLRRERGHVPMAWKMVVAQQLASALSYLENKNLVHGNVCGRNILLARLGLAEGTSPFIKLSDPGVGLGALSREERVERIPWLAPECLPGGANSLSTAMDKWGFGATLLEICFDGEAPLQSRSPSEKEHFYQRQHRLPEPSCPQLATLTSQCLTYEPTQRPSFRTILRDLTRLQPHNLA
# assay: Binding activity test for JH2 domain of TYK2 (Tb-antibody/tracer FRET)
# measurementContext: JH2 domain enzyme; 60 min at 25°C, then 4°C overnight; read-out: TYK2 JH2 Binding IC50
propertyName: log10 of IC50 (log10 of the value in nM)
Record value = log10 of IC50 given in nM.

Would you mind telling me what log10 of IC50 value was observed for [2H]C([2H])([2H])CC(=O)c1cnc(NC(=O)C2CC2)cc1Nc1nc2ccc(N3CC(OC)C3)cn2n1 [Example 64] ?
-0.85

Returns the measured log10 of IC50 for the input molecule. Input: COC(=O)c1cnc(NC(=O)C2CC2)cc1Nc1n[nH]c2ccc(C(OC)C(F)(F)F)c(OC)c12 (stereo not shown) [Example 113]
-0.59

Look up log10 of IC50: [2H]C([2H])([2H])NC(=O)c1cnc(NC(=O)C2CC2)cc1Nc1nn(C)c2ccc([C@H](O)C(F)(F)F)c(OC)c12 [Example 49A]
-0.97

Entry [2H]C([2H])([2H])NC(=O)c1cnc(NC(=O)C2CC2)cc1Nc1cnn2ccc([C@H](OC([2H])([2H])[2H])C(F)(F)F)c(OC)c12 [Example 28] : reported log10 of IC50 = ?
-1.14

Tell me the measured log10 of IC50 of [2H]C([2H])([2H])NC(=O)c1cnc(NC(=O)C2CC2)cc1Nc1cnn2ccccc12 [Example 40] , please.
2.27

Give its log10 of IC50 value. Item: COC(=O)c1cnc(NC(=O)C2CC2)cc1Nc1ncn2ccc(C)c(OC)c12 [Example 103]
0.77

Given the molecule [2H]C([2H])([2H])Oc1c([C@H](OC)C(F)(F)F)ccc2c1c(Nc1cc(NC(=O)C3CC3)ncc1C(=O)OC)nn2C [Example 120A] , what is its reported log10 of IC50?
-1.05

====

# targetOrSystem: JAK1-JH2 domain (Homo sapiens, UniProt P23458)
# Construct: JAK1-JH2 domain or TYK2-JH2 domain enzyme in assay buffer
# Sequence (P23458 583-855 limits assumed): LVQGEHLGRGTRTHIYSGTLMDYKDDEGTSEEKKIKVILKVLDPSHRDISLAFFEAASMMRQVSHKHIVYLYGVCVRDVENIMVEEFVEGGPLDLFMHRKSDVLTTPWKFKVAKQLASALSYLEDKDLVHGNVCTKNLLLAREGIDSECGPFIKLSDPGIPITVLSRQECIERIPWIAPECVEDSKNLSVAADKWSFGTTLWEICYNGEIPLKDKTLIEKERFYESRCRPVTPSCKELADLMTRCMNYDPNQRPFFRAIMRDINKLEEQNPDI
# assay: Binding activity test for JH2 domain of JAK1 (Tb-antibody/tracer FRET)
# measurementContext: JH2 domain enzyme; 60 min at 25°C, then 4°C overnight; read-out: JAK1 JH2 Binding IC50
pIC50: −log10 of the molar value.
Given measured pIC50, output 1 if it is greater than or equal to 8 and 0 if not.

Check the entry COc1c([C@H](OC)C(F)(F)F)ccn2ncc(Nc3cc(NC(=O)C4CC4)ncc3C(=O)CC#N)c12 : does pIC50 equal or exceed 8?
0

API: above_or_equal(metric=pIC50, cutoff=8) for item [2H]C([2H])([2H])O[C@H](c1ccc2c(c(Nc3cc(NC(=O)C4CC4)ncc3C(=O)OC)nn2C)c1OC)C(F)(F)F [Example 50A]
0

Could you please find out whether COC(=O)c1cnc(NC(=O)C2CC2)cc1Nc1cccc(-c2ccn(C)n2)c1OC has pIC50 that meets 8 or exceeds it?
0

Test whether the molecule [2H]C([2H])([2H])NC(=O)c1cnc(NC(=O)[C@@H]2C[C@@H]2F)cc1Nc1cnn2ccc(C(O)C(F)(F)F)c(OC)c12 (single isomer, unassigned) [Example 15B] records pIC50 of 8 or higher.
0

Confirm if pIC50 reported for the molecule COC(=O)c1cnc(NC(=O)C2CC2)nc1Nc1cccc(-c2ncn(C)n2)c1OC is 8 or above.
0

Could you please find out whether [2H]C([2H])([2H])CC(=O)c1cnc(NC(=O)C2CC2)cc1Nc1nn(C)c2ccc([C@H](O)C(F)(F)F)c(OC)c12 [Example 54A] has pIC50 that meets 8 or exceeds it?
1

Answer whether pIC50 of CCOC(=O)c1cnc(NC(=O)C2CC2)cc1Nc1cnn2ccc([C@H](O)C(F)(F)F)c(OC)c12 is greater than or equal to 8.
0

Does [2H]C([2H])([2H])NC(=O)c1cnc(NC(=O)[C@@H]2C[C@@H]2F)cc1Nc1cnn2ccc(C#N)c(OC)c12 have a reported pIC50 of at least 8?
0

Record COC(=O)c1cnc(NC(=O)C2CC2)cc1Nc1cnn2ccc(C(C)C(F)(F)F)c(OC)c12 (centres unmarked) ; criterion: pIC50 no lower than 8. Met?
0

Given [2H]C([2H])([2H])NC(=O)c1cnc(NC(=O)C2CC2)cc1Nc1cn(C)c2ccc(CC)c(OC)c12 , state whether its pIC50 is at least 8.
1

Does the molecule [2H]C([2H])([2H])O[C@@H](c1ccn2ncc(Nc3cc(NC(=O)C4CC4)ncc3C(=O)OC)c2c1OC)C(F)(F)F have recorded pIC50 that is 8 or more?
0

pIC50 >= 8 for [2H]C([2H])([2H])NC(=O)c1cnc(NC(=O)C2CC2)cc1Nc1cnn2ccc(C(C)C(F)(F)F)c(OC)c12 (single isomer, unassigned) [Example 9B] ?
1

Does pIC50 meet or surpass 8 for [2H]C([2H])([2H])NC(=O)c1cnc(NC(=O)[C@@H]2C[C@@H]2F)cc1Nc1cnn2cnc(OC)c(OC)c12 ?
0

I'd appreciate it if you could say whether [2H]C([2H])([2H])NC(=O)c1cnc(NC(=O)C2CC2)cc1Nc1nn(C)c2ccc([C@H](OC)C(F)(F)F)c(OC)c12 [Example 46A] has pIC50 at least equal to 8.
1

Hi team, for COc1c([C@H](OC)C(F)(F)F)ccn2ncc(Nc3cc(NC(=O)C4CC4)ncc3C(O)CC#N)c12 (some centres unmarked) , is the recorded pIC50 at or above 8?
0

Hello, I need to know if [2H]C([2H])([2H])NC(=O)c1cnc(NC(=O)C2CC2)cc1Nc1cnn2ccc(C(C)C(F)(F)F)c(OC)c12 (single isomer, unassigned) [Example 9A] has measured pIC50 not below 8. Thanks!
0

In plain terms: is recorded pIC50 at least 8 for CCC(=O)c1cnc(NC(=O)C2CC2)cc1Nc1nn(C)c2ccc([C@H](O)C(F)(F)F)c(OC)c12 ?
1

====

# targetOrSystem: TYK2-JH2 domain (Homo sapiens)
# Construct: JAK1-JH2 domain or TYK2-JH2 domain enzyme in assay buffer
# assay: Binding activity test for JH2 domain of TYK2 (Tb-antibody/tracer FRET)
# measurementContext: JH2 domain enzyme; 60 min at 25°C, then 4°C overnight; read-out: TYK2 JH2 Binding IC50
Would you mind telling me the reported pIC50 of each entry?
Quick note: pIC50 means taking -log10 of the concentration in moles per liter.

// query pIC50 value for entry [2H]C([2H])([2H])NC(=O)c1nnc(NC(=O)C2CC2)cc1Nc1ncn2cccc2c1OC [Example 198, reference compound]
8.83

Would you kindly share the measured pIC50 for [2H]C([2H])([2H])NC(=O)c1cnc(NC(=O)[C@@H]2C[C@@H]2F)cc1Nc1nn(C)c2ccc([C@H](O)C(F)(F)F)c(OC)c12 ?
10.10

Record request: pIC50 value, item COC(=O)c1nnc(NC(=O)C2CC2)cc1Nc1cccc(-c2ncn(C)n2)c1OC
6.70

# input molecule: [2H]C([2H])([2H])NC(=O)c1cnc(NC(=O)C2CC2)cc1Nc1cnn2cnc(C(C)C(F)(F)F)c(OC)c12 (centres unmarked) ; wanted: its pIC50
8.78

# query: pIC50 of entry COC(=O)c1cnc(Nc2ccc(F)cn2)cc1Nc1nn(C)c2ccc(C(OC)C(F)(F)F)c(OC)c12 (centres unmarked)
9.73

Bench note: what pIC50 did COC(=O)c1cnc(NC(=O)C2CC2)cc1Nc1nn(C)c2ccc(C#N)c(OC)c12 show?
8.75

Entry under review: [2H]C([2H])([2H])NC(=O)c1cnc(Nc2ccn(C)n2)cc1Nc1cnn2ccc([C@H](O)C(F)(F)F)c(OC)c12 . Reported pIC50?
10.11

I have this molecule here, [2H]C([2H])([2H])NC(=O)c1cnc(NC(=O)C2CC2)cc1Nc1nn(C)c2ccc([C@H](OC([2H])([2H])[2H])C(F)(F)F)c(OC)c12 [Example 55A] , and I need its recorded pIC50.
10.28

Any idea what pIC50 was measured for CCONC(=O)c1cnc(NC(=O)C2CC2)cc1Nc1nn(C)c2ccc(C(OC)C(F)(F)F)c(OC)c12 (centres unmarked) ?
10.05

Value lookup for pIC50; key = COCc1ccc2c(c(Nc3cc(NC(=O)C4CC4)ncc3C(=O)OC)nn2C)c1OC
9.54

Item COC(=O)c1cnc(NC(=O)[C@@H]2C[C@@H]2F)cc1Nc1nn(C)c2ccc([C@H](OC)C(F)(F)F)c(OC)c12 has what recorded pIC50?
10.05

Value lookup for pIC50; key = COC(=O)c1cnc(NC(=O)C2CC2)cc1Nc1nsc2ccc(C(OC)C(F)(F)F)c(OC)c12 (centres unmarked) [Example 67]
9.82

Which value of pIC50 has been reported for [2H]C([2H])([2H])NC(=O)c1cnc(NC(=O)C2CC23CC3)cc1Nc1nn(C)c2ccc([C@H](O)C(F)(F)F)c(OC)c12 (some centres unmarked) in the records?
10.04

What pIC50 value was documented for this molecule, COC(=O)c1cnc(NC(=O)C2CC2)cc1Nc1nn(C)c2ccc(C(OC)C(F)(F)F)c(O)c12 (centres unmarked) ?
9.13
